Listing of recorded interaction data at Target Concentration 1000 by entry.
target: MDM2 (Homo sapiens, UniProt Q00987); construct: made in house; assay: Naive Library Presenter Screening (phage, NGS), MDM2; format: binding; details: MDM2 target concentration 1000 nM, first column
Sequence (Q00987 25-109): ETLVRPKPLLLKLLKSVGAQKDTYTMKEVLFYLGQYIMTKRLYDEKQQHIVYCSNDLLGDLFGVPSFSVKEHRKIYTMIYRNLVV
Numbered stars: 1 amine (or outer) side, 2 acyl side, 3 side chain; on linkers, the order of the positions; unused ones are H or OH. Bridge positions count the residues as written; N and C are the ends. Ends that are not written are not given here. Phenylene(1,4-NHCOCH2)2 = O=C(C[*:1])Nc1ccc(NC(=O)C[*:2])cc1

Example results:
- SEQUENCE_CODE: "DPASEACFQAAWDCVSW (DPASEACFQAAWDCVSW-NH2; linker 7-14 via Phenylene(1,4-NHCOCH2)2 (inferred))"
  RESULT: 336
- SEQUENCE_CODE: "DPADNRCFQAAWDCAFW (linker 7-14 via Phenylene(1,4-NHCOCH2)2 (inferred))"
  RESULT: 20
- SEQUENCE_CODE: "DPAYASCFSAAWDCQFW (linker 7-14 via Phenylene(1,4-NHCOCH2)2 (inferred))"
  RESULT: 13

Field interaction data at Target Concentration 1000 (entry DPANHACFQAAWDCQFF (linker 7-14 via Phenylene(1,4-NHCOCH2)2 (inferred)) ) reads 776

Per the records, this sequence ( DPADSECFQAASDCQYW (linker 7-14 via Phenylene(1,4-NHCOCH2)2 (inferred)) ) has interaction data at Target Concentration 1000 equal to 5

# interaction data at Target Concentration 1000 of DPAENECFTAAWDCMFF (linker 7-14 via Phenylene(1,4-NHCOCH2)2 (inferred)) = 70

The recorded interaction data at Target Concentration 1000 for DPAFDSCFSAAWDCMYW (linker 7-14 via Phenylene(1,4-NHCOCH2)2 (inferred)) is 65

###

Molecular target: RNF31 UBA domain (Homo sapiens, UniProt Q96EP0)
Construct: RNF31 UBA domain protein (residues 480-639) with N-terminal Thioredoxin-TEV-6×his-yBBr-3C tags; Thioredoxin (N, cleaved yes); made in house; host or cells: E. coli BL21 (DE3) pLysS
Sequence (Q96EP0 480-639): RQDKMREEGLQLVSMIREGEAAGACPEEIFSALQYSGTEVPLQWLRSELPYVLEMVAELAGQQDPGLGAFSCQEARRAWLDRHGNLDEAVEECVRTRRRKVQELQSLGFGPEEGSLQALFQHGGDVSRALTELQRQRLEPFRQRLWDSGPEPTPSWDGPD
Assay: Phage Library Screening with NGS, RNF31 UBA domain
Type: binding
Conditions: RNF31 UBA domain cluster C46; target concentration 30
VALUE_KIND: Phage library screen NGS readout, Target Concentration 30
When you answer, write just the number.

Completed entries (count: 3):
- SEQUENCE_CODE: "DPALRTCLSAAVFCAVA"
  NUMBER: 6
- SEQUENCE_CODE: "DPAASQCFSAAVYCAWI"
  NUMBER: 0
- SEQUENCE_CODE: "DPAEQRCLSAAVYCAWH"
  NUMBER: 3

The sequence identified as `DPAQMSCFSAAVYCRLF` registered its Phage library screen NGS readout, Target Concentration 30 at 0

Sample `DPAQRQCLSAAVWCATF` ; Phage library screen NGS readout, Target Concentration 30 observed: 57

Noted for `DPAQLNCLSAAMYCALY` : its Phage library screen NGS readout, Target Concentration 30 reads 19
